# Tested on: 323965-272-R-J2-PDC complex spheroid growth, % test/control;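 also: compound exposure lasted 7 days starting three days after spheroid seeding; 100% = DMSO vehicle control wells with viability set relative to vehicle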
# TEST_SUMMARY: Anticancer human tumor 323965-272-R-J2-PDC patient-derived pancreatic carcinoma cell line growth inhibition [Asc]
# CONDITION_SET: second compound 0.1 µM; first compound 3 µM; hits give low values
PROPERTY: viability, T/C

Below are worked cases with known answers.
Input line: Field request: viability, T/C | item: Cc1nc(N2CCC3(CC2)COC(C)C3N)c(CO)nc1Sc1ccnc(N)c1Cl (centres undefined) + Cc1c(S(C)(=O)=O)c(-c2cc(F)cc(N3CCN(c4ccc(NS(=O)(=O)c5ccc(NC(CCN6CCC(C(=O)OCCCP(=O)(O)O)CC6)CSc6ccccc6)c(S(=O)(=O)C(F)(F)F)c5)cc4)CC3)c2)c(-c2ccc(Cl)cc2)n1C(C)C
Output line: 37.8%

Input line: Field request: viability, T/C | item: Cc1nc(N2CCC3(CC2)COC(C)C3N)c(CO)nc1Sc1ccnc(N)c1Cl (centres undefined) + CNC(C)C(=O)NC1CN(S(=O)(=O)c2cccc(S(=O)(=O)N3CCC4CCC(C(=O)NC(c5ccccc5)c5ccccc5)N4C(=O)C(NC(=O)C(C)NC)C3)c2)CCC2CCC(C(=O)NC(c3ccccc3)c3ccccc3)N2C1=O
Output line: 47.4%

Input line: Field request: viability, T/C | item: CCN1C(C(=O)NC23CCC(C(=O)O)(CC2)CC3)C(c2cccc(Cl)c2F)C2(C(=O)Nc3cc(Cl)ccc32)C12CCCCC2 (centres undefined) + Cc1c(S(C)(=O)=O)c(-c2cc(F)cc(N3CCN(c4ccc(NS(=O)(=O)c5ccc(NC(CCN6CCC(C(=O)OCCCP(=O)(O)O)CC6)CSc6ccccc6)c(S(=O)(=O)C(F)(F)F)c5)cc4)CC3)c2)c(-c2ccc(Cl)cc2)n1C(C)C
Output line: 81.8%

# input for lookup
Input line: Field request: viability, T/C | item: CCN1C(C(=O)NC23CCC(C(=O)O)(CC2)CC3)C(c2cccc(Cl)c2F)C2(C(=O)Nc3cc(Cl)ccc32)C12CCCCC2 (centres undefined) + CNC(C)C(=O)NC1CN(S(=O)(=O)c2cccc(S(=O)(=O)N3CCC4CCC(C(=O)NC(c5ccccc5)c5ccccc5)N4C(=O)C(NC(=O)C(C)NC)C3)c2)CCC2CCC(C(=O)NC(c3ccccc3)c3ccccc3)N2C1=O
Output line: 83.9%
